Tested on: HT-29
Experiment: NCI tumour cell line growth inhibition, 48 h
Active and inactive are the calls of the source. Rule as the data show it: active = GI50 up to about 1.1 µM and inactive = higher.
Metric: GI50

Exercise: Recorded GI50 of CN1CC(S(=O)(=O)c2ccccc2)CC(S(=O)(=O)c2ccccc2)C1c1ccccc1 (stereo not given) , please.
Key: 14.8 µM (inactive)

Exercise: Same question for C=CC1(CC/C(=C\[N+](=O)[O-])c2ccc(OC)c(OC)c2)OCC(C)(C)CO1 please.
Key: 19.9 µM (inactive)

Exercise: Another compound: CCCCc1nc(C)oc1C(C)C
Key: > 100 µM (inactive)

Exercise: Check NCCNCCCNC(=O)c1cc(-c2ccccc2)nc2ccccc12 too.
Key: 36.2 µM (inactive)

Exercise: Also need Cc1ccccc1NC(=O)CC(=O)n1nc(-c2ccccc2)c(/N=N/c2ccc([N+](=O)[O-])cc2)c1-c1ccccc1 , thanks.
Key: 8.34 µM (inactive)

Exercise: Now the compound COc1ccc(C(OCC2OC(n3cc(C)c(=O)[nH]c3=O)CC2n2cc(Cn3cc(I)c(=O)[nH]c3=O)nn2)(c2ccccc2)c2ccccc2)cc1 (stereo not given)
Key: > 100 µM (inactive)

Exercise: What about C=CCCCN1CCCC(C)C1=S (stereo not given) ?
Key: > 100 µM (inactive)

Exercise: Could you do the same for Brc1ccc(/N=c2/nc3ccccn3n3nc(-c4ccccc4)cc23)cc1 , please?
Key: 75.5 µM (inactive)

Exercise: CCC12CN(C(=O)OC)C3C(Br)C1CCC(=O)C32 (stereo not given) ?
Key: > 100 µM (inactive)

Exercise: Same read-out for COc1ccc(-c2cc(O)c3nc4ccccc4n3c2)cc1 ?
Key: > 100 µM (inactive)

// data source = ChEMBL document CHEMBL1201862
